target: WT E. coli PNP (Escherichia coli); construct: made in house; test: Fluorescence titrations with phosphate; details: three-binding-site model, 25 °C, 50 mM Tris/HCl pH 7.6, read-out: Kd1 ± SD
Sequence (P0ABP8 2-239 limits assumed): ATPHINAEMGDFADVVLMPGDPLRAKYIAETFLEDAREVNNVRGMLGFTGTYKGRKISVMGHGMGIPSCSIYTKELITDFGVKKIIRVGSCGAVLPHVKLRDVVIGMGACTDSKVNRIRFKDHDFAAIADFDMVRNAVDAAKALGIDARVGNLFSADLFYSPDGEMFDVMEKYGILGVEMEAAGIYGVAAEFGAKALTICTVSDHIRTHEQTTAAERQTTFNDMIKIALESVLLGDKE
ASSAY ENDPOINT: pKd
Give bare numbers, as −log10 of the molar value.

Checklist item: pKd tested on WT E. coli PNP (Escherichia coli), entry O=P(O)(O)O [Pi, Orthophosphate] , value?
5.36

====

Target: Y160W PNP mutant (Escherichia coli, UniProt P0ABP8, Y161W)
Sequence (P0ABP8 2-239 Y161W): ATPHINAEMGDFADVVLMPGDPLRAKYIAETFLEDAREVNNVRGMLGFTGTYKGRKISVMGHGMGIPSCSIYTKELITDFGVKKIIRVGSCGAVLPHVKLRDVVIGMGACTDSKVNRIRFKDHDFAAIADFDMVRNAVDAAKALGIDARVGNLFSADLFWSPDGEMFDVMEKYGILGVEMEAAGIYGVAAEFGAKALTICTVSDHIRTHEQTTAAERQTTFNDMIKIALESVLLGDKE
Experiment: Fluorescence titrations with phosphate
Parameters: made in house; host or cells: E. coli DH5α-T1; species or system E. coli
Details: three-binding-site model, 25 °C, 50 mM Tris/HCl pH 7.6, read-out: Kd2 ± SD
Protocol: All experiments were carried out on the Perkin-Elmer LS55 spectrofluorimeter. Fluorescence spectra were registered using in each case (protein or protein–ligand complex) several excitation wavelengths. Differential spectra were calculated by subtracting spectrum of a protein from the spectrum of the appropriate complex. The negative differential fluorescence intensity means that a decrease of fluorescence upon complex formation is observed. […]
ASSAY ENDPOINT: pKd
Answers are plain numbers, as −log10 of the molar value.

Give pKd (Y160W PNP mutant (Escherichia coli, UniProt P0ABP8, Y161W)) of the following compound: O=P(O)(O)O [Pi, Orthophosphate]
3.70
